- Test system: giant foxtail (Setaria faberii)
- TEST SUMMARY: Test A pre-/postemergence plant response
- Type: in vivo
- CONDITION LABEL: Postemergence, 500 g ai/ha; 0 to 100 scale, 0 = no effect, 100 = complete control; approx. ten days

{"columns": ["COMPOUND", "Plant response rating, Foxtail, Giant"],
 "data": [
  ["CCCn1c(-c2ccco2)ncc(C(=O)C2=C(O)CCCC2=O)c1=O", 50],
  ["O=C1CCCC(O)=C1C(=O)c1cnc(-c2ccccc2)n(C2CCCC2)c1=O", 90],
  ["Cn1c(-c2ccccc2)ncc(C(=O)C2=C(O)CCCC2=O)c1=O", 60],
  ["CCCCn1c(-c2ccccc2)ncc(C(=O)C2=C(O)CCCC2=O)c1=O", 90],
  ["O=C1CCCC(O)=C1C(=O)c1cnc(C2CCCCC2)n(-c2ccccc2)c1=O", 60],
  ["COCCn1c(-c2ccccc2)ncc(C(=O)C2=C(O)CCCC2=O)c1=O", 90],
  ["Cc1cc(-n2c(-c3cccc(Cl)c3)ncc(C(=O)C3=C(O)CCCC3=O)c2=O)ccc1F", 90],
  ["CCn1c(-c2cccc(Cl)c2)ncc(C(=O)C2=C(O)CCCC2=O)c1=O", 80]
]}
